condition.label: in PEG-400, 308.15 K
readout.name: solubility (mole fraction)

A. Nc1ccc(S(=O)(=O)Nc2ncccn2)cc1
B. O=C1Nc2ccccc2C1=O
Qu. Kindly compare A with B and tell me which has the lower solubility (mole fraction) figure. Let me know the label of the one you choose.
Ans. A
(A: 0.0134, B: 0.109)

----------
condition.label: in acetone, 288.15 K
readout.name: solubility (mole fraction)

I. CCCN1CCCC[C@H]1C(=O)Nc1c(C)cccc1C
II. F[P-](F)(F)(F)(F)F.F[P-](F)(F)(F)(F)F.c1cc[n+](CCCCCC[n+]2ccccc2)cc1
Qu. Given the listed items, does I or II have the lesser reported solubility (mole fraction)? Reply briefly: the label of your chosen item.
Ans. II
(II: 0.00399, I: 0.0098)

----------
condition.label: in methanol, 283.15 K
readout.name: solubility (mole fraction)
Enter the number alone.

Qu. Which value of solubility (mole fraction) has been reported for CCc1ccc(CCOc2ccc(CC3SC(=O)NC3=O)cc2)nc1.Cl (stereo unspecified) in the records?
Ans. 0.00517

----------
condition.label: in water, 313.2 K
readout.name: solubility (mole fraction)

1. Cc1ccc(-c2cc(C(F)(F)F)nn2-c2ccc(S(N)(=O)=O)cc2)cc1
2. O=C1NC(=O)C(c2ccccc2)(c2ccccc2)N1
Qu. Select one: 1 or 2 . Criterion: greater recorded solubility (mole fraction). Mark your answer with the label of the selected entry.
Ans. 2
(2: 2.08e-06, 1: 1.44e-07)

----------
condition.label: in ethyl acetate, 298.15 K
readout.name: solubility (mole fraction)

I. OCCCCCCO
II. CC(C)(C)C(=O)OCOP(=O)(COCCn1cnc2c(N)ncnc21)OCOC(=O)C(C)(C)C
III. O=C(O)c1ccccc1O
Qu. Please rank these molecules by solubility (mole fraction) in descending order. Returns: the labels listed in the requested order.
Ans. III, I, II
(III: 0.138, I: 0.0834, II: 0.0263)

----------
condition.label: in DMSO, 298.15 K
readout.name: solubility (mole fraction)
Simply state the number, no unit and no words.

Qu. // lookup solubility (mole fraction) for "COc1cc(/C=C/C(=O)O)cc(OC)c1O"
Ans. 0.147

----------
condition.label: in PEG-400, 313.15 K
readout.name: solubility (mole fraction)
Provide a numeric answer; units are not to be included.

Qu. Which solubility (mole fraction) is listed for "Nc1ccc(S(=O)(=O)Nc2ncccn2)cc1" ?
Ans. 0.0136

----------
condition.label: in ethanol, 333 K
readout.name: solubility (mole fraction)
I'd appreciate a reply containing only the number, no unit.

Qu. Quick one: solubility (mole fraction) of "c1ccc(P(c2ccccc2)c2ccccc2)cc1" ?
Ans. 0.0494

----------
condition.label: in acetone, 313.15 K
readout.name: solubility (mole fraction)
The answer should be written as a number, with no unit following it.

Qu. Entry "CCCN1CCCC[C@H]1C(=O)Nc1c(C)cccc1C" : reported solubility (mole fraction) = ?
Ans. 0.0266

----------
condition.label: in NMP, 313.2 K
readout.name: solubility (mole fraction)
Just the number.

Qu. Given the entry CC(=O)N1CCN(c2ccc(OC[C@@H]3CO[C@@](Cn4ccnc4)(c4ccc(Cl)cc4Cl)O3)cc2)CC1 (racemic) , report its measured solubility (mole fraction).
Ans. 0.0376

----------
condition.label: in acetic acid, 343.2 K
readout.name: solubility (mole fraction)

a. O=C(O)c1ccc(C(=O)O)c(C(=O)O)c1
b. O=C1c2ccccc2C(=O)N1O
Qu. Between a and b , which one shows the larger solubility (mole fraction) value? Respond using the label that marks the chosen record.
Ans. b
(b: 0.0103, a: 0.00676)

----------
condition.label: in n-propyl acetate, 333.2 K
readout.name: solubility (mole fraction)
Give only the figure.

Qu. # lookup: solubility (mole fraction) of "O=C(O)c1cccc(C(=O)O)c1"
Ans. 0.00132

----------
condition.label: in water, 318.17 K
readout.name: solubility (mole fraction)
Give a plain numeric answer without units written out.

Qu. Given "N[C@@H](C(=O)O)c1ccc(O)cc1" , state its recorded solubility (mole fraction).
Ans. 0.00272

----------
condition.label: in ethanol, 315.65 K
readout.name: solubility (mole fraction)
Give the value as a plain number.

Qu. Record request: solubility (mole fraction) value, item "Nc1cc(Cl)nnc1Cl"
Ans. 0.0212

----------
condition.label: in cyclohexane, 316.65 K
readout.name: solubility (mole fraction)
Answer with the value's number alone.

Qu. Which solubility (mole fraction) is reported for this compound? "Cc1ccccc1C(=O)O"
Ans. 0.0515

----------
condition.label: in water, 285.15 K
readout.name: solubility (mole fraction)
Form rule: numeric answer, no unit written next to it.

Qu. Find the recorded solubility (mole fraction) belonging to "C[N+](C)(C)CCOP(=O)([O-])OP(=O)([O-])OC[C@H]1O[C@@H](n2ccc(N)nc2=O)[C@H](O)[C@@H]1O.[Na+]" and report it.
Ans. 0.0224

----------
condition.label: in transcutol, 308.15 K
readout.name: solubility (mole fraction)
Just the number, please.

Qu. Look at this molecule and give its reported solubility (mole fraction). "O=C1Nc2ccccc2C1=O"
Ans. 0.536

----------
condition.label: in transcutol, 338.15 K
readout.name: solubility (mole fraction)
Answer with the value's number alone.

Qu. So what does the record say about solubility (mole fraction) for "O=C1Nc2ccccc2C1=O" ?
Ans. 0.594

----------
condition.label: in water, 315.65 K
readout.name: solubility (mole fraction)
Give only the figure.

Qu. Requested field: solubility (mole fraction). Item: "CC(C)C[C@H](CN)CC(=O)O"
Ans. 0.00447

----------
condition.label: in ethanol, 298.15 K
readout.name: solubility (mole fraction)

{"compound": "c1ccc(-c2cnc(-c3ccc(-c4ncc(-c5ccccc5)o4)cc3)o2)cc1", "solubility (mole fraction)": "8.43e-06"}
{"compound": "CN1C(C(=O)Nc2ccccn2)=C(O)c2ccccc2S1(=O)=O", "solubility (mole fraction)": 0.000214}
{"compound": "c1ccc(-c2cnc(-c3ccccc3)o2)cc1", "solubility (mole fraction)": 0.04}
{"compound": "CN1C(C(=O)Nc2ccccn2)=C(O)c2sc(Cl)cc2S1(=O)=O", "solubility (mole fraction)": "1.3e-05"}
{"compound": "CC1(C)S[C@@H]2[C@H](NC(=O)COc3ccccc3)C(=O)N2[C@H]1C(=O)[O-].[K+]", "solubility (mole fraction)": 0.00117}

1. COc1ccccc1OCC(O)COC(N)=O (centres undefined)
2. Clc1ccc(OCCCBr)cc1
Qu. // pick min by solubility (mole fraction): 1 , 2 When you have decided, please share the label of that item.
Ans. 1
(1: 0.00436, 2: 0.0933)

I. O=C(O)c1ccccc1O
II. CC(C)(C)C(=O)OCOP(=O)(COCCn1cnc2c(N)ncnc21)OCOC(=O)C(C)(C)C
Qu. Form field 'greater solubility (mole fraction)' accepts I or II ; which applies? Field: selected label. Fill in the label of the entry you choose.
Ans. I

----------
condition.label: in water, 283 K
readout.name: solubility (mole fraction)
Answer with a bare number; do not write a unit.

Qu. Entry "C1CN2CN3CCN(CN1C3)C2" : reported solubility (mole fraction) = ?
Ans. 0.0999

----------
condition.label: in water, 278.15 K
readout.name: solubility (mole fraction)

// known answers, use as guide
{"query.smiles": "C[C@@H](O)[C@H]1C(=O)N2C(C(=O)O)=C(S[C@@H]3CN[C@H](C(=O)N(C)C)C3)[C@H](C)[C@H]12.O.O.O", "readout.name": "solubility (mole fraction)", "assay.value": 0.000408}
{"query.smiles": "C[N+](C)(C)CCOP(=O)([O-])OP(=O)([O-])OC[C@H]1O[C@@H](n2ccc(N)nc2=O)[C@H](O)[C@@H]1O.[Na+]", "readout.name": "solubility (mole fraction)", "assay.value": 0.0211}
{"query.smiles": "CC1(C)S[C@@H]2[C@H](N)C(=O)N2[C@H]1C(=O)O", "readout.name": "solubility (mole fraction)", "assay.value": 0.000143}

A. Cc1ncc(CO)c(CO)c1O.Cl
B. Oc1cc(O)c2cc1Cc1cc(c(O)cc1O)Cc1cc(c(O)cc1O)Cc1cc(c(O)cc1O)C2
Qu. Between A and B , whose recorded solubility (mole fraction) is greater? Write the label of whichever entry you select.
Ans. A

----------
condition.label: in water, 298.15 K
readout.name: solubility (mole fraction)

Here are 4 compounds together with their reported answers.
{"query.smiles": "O=C(O)[C@@H]1C[C@@H](O)CN1", "assay.value": 0.0499}
{"query.smiles": "O=[N+]([O-])c1ccc(N/N=C/c2ccco2)c([N+](=O)[O-])c1", "assay.value": "1.4e-08"}
{"query.smiles": "O=c1[nH]cc(I)c(=O)[nH]1", "assay.value": 0.000373}
{"query.smiles": "Cc1nc2n(c(=O)c1CCN1CCC(c3noc4cc(F)ccc34)CC1)CCCC2", "assay.value": "1e-07"}

1. O=c1[nH]cc(F)c(=O)[nH]1
2. O=c1cc(Cl)[nH]c(=O)[nH]1
Qu. Which has the higher solubility (mole fraction), 1 or 2 ? Please reply using the label of the selected record.
Ans. 1

1. C(=N\Nc1ccccc1)/c1ccc[nH]1
2. c1ccc(-c2cnc(-c3ccc(-c4ncc(-c5ccccc5)o4)cc3)o2)cc1
3. CSCC[C@H](N)C(=O)O
4. CN1C(C(=O)Nc2ccccn2)=C(O)c2ccccc2S1(=O)=O
5. C[N+](C)(C)CCOP(=O)([O-])OP(=O)([O-])OC[C@H]1O[C@@H](n2ccc(N)nc2=O)[C@H](O)[C@@H]1O.[Na+]
Qu. Put the compounds in ascending order of solubility (mole fraction). Please reply with the labels ordered as requested. Many thanks.
Ans. 2, 4, 1, 3, 5
(2: 7.3e-10, 4: 4.01e-07, 1: 5.86e-07, 3: 0.00681, 5: 0.0265)
